Can you tell me Bliss excess for the items I'm about to list?
# Test system: NCI-H596 (Other Solid Carcinomas)
# test.name: Bliss excess, mean over the matrix (fraction); higher = more synergy;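 further: after 72 h of two-drug dosing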
// no unit, no text: just the number

## Input Supply Bliss excess value. Item: CC1(C)CCC(CN2CCN(c3ccc(C(=O)NS(=O)(=O)c4ccc(NCC5CCOCC5)c([N+](=O)[O-])c4)c(Oc4cnc5[nH]ccc5c4)c3)CC2)=C(c2ccc(Cl)cc2)C1 [Venetoclax] + CN(C)CCCOc1ccc(-c2ccc3ncc4c(c3c2)n(C2CCOCC2)c(=O)n4C)cn1 [AZD0156] (first compound max 1 µM, 7x7, partner max 1 µM)
## Output -0.0377

## Input Tell me Bliss excess reported for C[C@@H]1COCCN1c1cc(C2([S@](C)(=N)=O)CC2)nc(-c2ccnc3[nH]ccc23)n1 [AZD6738] + O=C(c1cc(Cc2n[nH]c(=O)c3ccccc23)ccc1F)N1CCN(C(=O)C2CC2)CC1 [Olaparib] (first compound max 10 µM, 7x7, partner max 10 µM)
## Output -0.0841

## Input Provide one value: measured Bliss excess of COc1cccc(OCCCN)c1-c1cc(Nc2cnc(C#N)cn2)n[nH]1 [Prexasertib] + C=CCn1c(=O)c2cnc(Nc3ccc(N4CCN(C)CC4)cc3)nc2n1-c1cccc(C(C)(C)O)n1 [AZD1775] (first compound max 1 µM, partner max 1 µM)
## Output 0.0087

## Input Identify the reported Bliss excess for the following entry. Cc1cc2ncnn2cc1Nc1ncc2c(n1)n(C1CCOCC1)c(=O)n2C [AZD7648] + CCN(CCO)CCCOc1ccc2c(Nc3cc(CC(=O)Nc4cccc(F)c4)[nH]n3)ncnc2c1 [AZD2811] (first compound max 10 µM, 7x7, partner max 1 µM)
## Output -0.0576

###

# System: SNU-423 (Hepatocellular Carcinoma)
# test.name: Bliss excess, mean over the matrix (fraction); higher = more synergy
Bliss excess of 0.02 or higher: met. Under 0.02: not met.

## Input Would you say Cc1cc2ncnn2cc1Nc1ncc2c(n1)n(C1CCOCC1)c(=O)n2C [AZD7648] + C[C@@H]1COCCN1C2=NC(=NC(=C2)C3(CC3)[S@](=N)(=O)C)C4=C5C=CNC5=NC=C4 [AZD6738] (first compound max 10 µM, 7x7, partner max 10 µM) shows Bliss excess at minimum 0.02?
## Output met

## Input hey, is Bliss excess for this one >= 0.02? CC1(C)CCC(CN2CCN(c3ccc(C(=O)NS(=O)(=O)c4ccc(NCC5CCOCC5)c([N+](=O)[O-])c4)c(Oc4cnc5[nH]ccc5c4)c3)CC2)=C(c2ccc(Cl)cc2)C1 [Venetoclax] + C=CCn1c(=O)c2cnc(Nc3ccc(N4CCN(C)CC4)cc3)nc2n1-c1cccc(C(C)(C)O)n1 [AZD1775] (first compound max 1 µM, partner max 1 µM)
## Output not met

## Input Quick check: does CC1(C)CCC(CN2CCN(c3ccc(C(=O)NS(=O)(=O)c4ccc(NCC5CCOCC5)c([N+](=O)[O-])c4)c(Oc4cnc5[nH]ccc5c4)c3)CC2)=C(c2ccc(Cl)cc2)C1 [Venetoclax] + C[C@@H]1COCCN1C2=NC(=NC(=C2)C3(CC3)[S@](=N)(=O)C)C4=C5C=CNC5=NC=C4 [AZD6738] (first compound max 1 µM, 7x7, partner max 10 µM) have Bliss excess greater than or equal to 0.02?
## Output not met

## Input Evaluate Cc1c2c(nn1C)CSCc1cc(n(C)n1)CSc1cc(c3ccccc3c1)OCCCc1c(C(=O)O)n(C)c3c-2c(Cl)ccc13 [AZD5991] + Cc1cc2ncnn2cc1Nc1ncc2c(n1)n(C1CCOCC1)c(=O)n2C [AZD7648] (first compound max 1 µM, 7x7, partner max 10 µM) : Bliss excess at minimum 0.02?
## Output not met

## Input Could you please find out whether CS(=O)(=O)CCNCc1ccc(-c2ccc3ncnc(Nc4ccc(OCc5cccc(F)c5)c(Cl)c4)c3c2)o1 [Lapatinib] + NC1(c2ccc(-c3nc4ccn5c(=O)[nH]nc5c4cc3-c3ccccc3)cc2)CCC1 [MK-2206] (first compound max 10 µM, 7x7, partner max 10 µM) has Bliss excess that meets 0.02 or exceeds it?
## Output met

## Input Is it the case that CN(CCO)CC[C@H](CSc1ccccc1)Nc1ccc(S(=O)(=O)NC(=O)c2ccc(N3CCC([C@@H](O)c4ccccc4-c4ccc(Cl)cc4)CC3)cc2)cc1S(=O)(=O)C(F)(F)F [AZD4320] + Cc1cc2ncnn2cc1Nc1ncc2c(n1)n(C1CCOCC1)c(=O)n2C [AZD7648] (first compound max 1 µM, 7x7, partner max 10 µM) has Bliss excess reaching or exceeding 0.02?
## Output not met

## Input # check: Bliss excess of C=CCn1c(=O)c2cnc(Nc3ccc(N4CCN(C)CC4)cc3)nc2n1-c1cccc(C(C)(C)O)n1 [AZD1775] + O=C(c1cc(Cc2n[nH]c(=O)c3ccccc23)ccc1F)N1CCN(C(=O)C2CC2)CC1 [Olaparib] (first compound max 1 µM, partner max 10 µM) is greater than or equal to 0.02
## Output not met

## Input Determine whether this compound has Bliss excess no lower than 0.02: COc1cccc(OCCCN)c1-c1cc(Nc2cnc(C#N)cn2)n[nH]1 [Prexasertib] + Cc1cc2ncnn2cc1Nc1ncc2c(n1)n(C1CCOCC1)c(=O)n2C [AZD7648] (first compound max 1 µM, 7x7, partner max 10 µM)
## Output not met

## Input // inclusive: Bliss excess at least 0.02? input: NC1(C(=O)N[C@@H](CCO)c2ccc(Cl)cc2)CCN(c2ncnc3[nH]ccc23)CC1 [Capivasertib] + Cn1cnc2c(F)c(Nc3ccc(Br)cc3Cl)c(C(=O)NOCCO)cc21 [Selumetinib] (first compound max 10 µM, 7x7, partner max 10 µM)
## Output met
